Sourced from paper PMC10115881

Tested on: T1, purified VPS4B (Vacuolar Protein Sorting 4) (UniProt O75351 1-444)
T1 chain: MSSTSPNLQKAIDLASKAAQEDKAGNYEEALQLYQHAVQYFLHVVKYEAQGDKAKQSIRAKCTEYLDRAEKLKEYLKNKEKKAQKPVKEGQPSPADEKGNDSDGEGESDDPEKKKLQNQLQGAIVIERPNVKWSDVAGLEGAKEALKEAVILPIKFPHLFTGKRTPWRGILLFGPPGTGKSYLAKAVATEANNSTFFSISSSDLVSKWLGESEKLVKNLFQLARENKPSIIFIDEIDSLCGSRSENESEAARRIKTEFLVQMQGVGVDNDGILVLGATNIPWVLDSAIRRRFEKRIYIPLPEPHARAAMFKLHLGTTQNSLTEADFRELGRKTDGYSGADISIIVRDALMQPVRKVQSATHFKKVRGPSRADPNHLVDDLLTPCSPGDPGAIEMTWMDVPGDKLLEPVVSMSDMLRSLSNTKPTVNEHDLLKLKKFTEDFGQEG
Test: FP
pKd: −log10 of the molar value. No end group written: not given here. *: point of attachment. FITC = O=C1OC2(c3ccc(O)cc3Oc3cc(O)ccc32)c2ccc(NC(=S)*)cc21
Endpoint name: pKd

What the record says about {FITC}-DEEIERQLKALG (stretch of the C-terminal region (MIM) of CHMP2B; also called FITC-PDpep1.3; source: synthetic peptide (LifeTein)) [FITC-labeled PDpep1.3 peptide] : pKd is ~3.70
